We begin with a simple list: items and their reported cytotoxicity at 10 µM.
TEST METHOD NOTES: Toxicity liver stage against HepG2, at 10uM
Format: cell-based
Parameters: test concentration 10 uM, cell line HepG2-A16-CD81EGFP
CONDITIONS: human, HepG2-A16-CD81EGFP cells; read-out: INHIBITION
Use % as the unit, but write only the number.

Example entries and their recorded answers appear below.
Cn1ccnc1CN1C[C@@H]2OCCN(c3ncccn3)[C@@H]2C1
-73
COc1ccc2cc(CN(C)CCN3CCCCC3=O)c(=O)[nH]c2c1
0.363
Nc1nc(CCC(=O)N2CCOC(CC3CCCCC3)C2)cs1 (stereo unspecified)
-9.18
CC(=O)N1CCCC(C(=O)NCCOc2cc(C)cc(C)c2)C1 (stereo unspecified)
-3.43

So what's the measured cytotoxicity at 10 µM for this one? CCN(CC1CCCCO1)C(=O)CCNC(=O)c1ccccc1F (stereo unspecified)
-42.9

So what's the measured cytotoxicity at 10 µM for this one? CCn1nc(C)c2nc(C(C)C)nc(NCCCn3ccnc3)c21
10.8

So what's the measured cytotoxicity at 10 µM for this one? Cc1ccccc1CN1CCN(c2ncnc3c2NC(=O)CN3)CC1
6.78

So what's the measured cytotoxicity at 10 µM for this one? CC1=NOC2(CCN(Cc3c[nH]c4ccccc34)CC2)C1
4.54

So what's the measured cytotoxicity at 10 µM for this one? Cc1n[nH]cc1CNC1CCN(c2ccc(F)cc2)CC1
-54

So what's the measured cytotoxicity at 10 µM for this one? N#Cc1c(Cl)nsc1N1CCN(CC2CCCCC2)CC1
-8.67

So what's the measured cytotoxicity at 10 µM for this one? CN(C)C[C@H]1O[C@H](Cc2cc(-c3ccccn3)on2)CC[C@@H]1O
-3.15

----------
TEST METHOD NOTES: Toxicity liver stage against HepG2, at 10uM
Type: cell-based
Design: test concentration 10 uM, cell line HepG2-A16-CD81EGFP
CONDITIONS: human, HepG2-A16-CD81EGFP cells; read-out: INHIBITION
PROPERTY LABEL: cytotoxicity at 10 µM (%)
Use % as the unit, but write only the number.

Example entries and their recorded answers appear below.
Cc1nnc(NC(=O)CN2CCc3c(nc(C4CC4)n3C)C2)s1
-8.51
CC(c1nc(C2CC2)no1)N1CCN(Cc2cccnc2)CC1 (stereo unspecified)
-6.18
COc1ccc(C2CCN(S(=O)(=O)CCCC#N)CC2)cc1
7.13
Cc1onc(-c2ccncc2)c1C(=O)NC1CCCOC1 (stereo unspecified)
4.51
Cn1cc(CCNCc2cc(Br)c3c(c2)OCO3)cn1
-18

Now for the compound whose cytotoxicity at 10 µM we want.
So what's the measured cytotoxicity at 10 µM for this one? CC(C)Sc1ccc(C(C)NC(=O)CNS(C)(=O)=O)cc1 (stereo unspecified)
3.92

----------
TEST METHOD NOTES: Toxicity liver stage against HepG2, at 10uM
Format: cell-based
Set-up: test concentration 10 uM, cell line HepG2-A16-CD81EGFP
CONDITIONS: human, HepG2-A16-CD81EGFP cells; read-out: INHIBITION
PROPERTY LABEL: cytotoxicity at 10 µM (%)
Use % as the unit, but write only the number.

Example entries and their recorded answers appear below.
Cc1ccc(-c2nnc(CN3CCNC(=O)C3)o2)cc1
-1.26
CC(=O)N[C@H]1CCO[C@@H](c2cccc(NC(=O)c3cccc(F)c3)c2)C1
8.75
Cc1csc(N2CCN(C(=O)CCC(=O)c3ccc(C)s3)CC2)n1
-3.09
CCCNC(=O)c1cc2c([nH]c1=O)CC(c1cccs1)CC2=O (stereo unspecified)
50.9
Cc1ccsc1CNC(=O)NC(C)c1ccc2c(c1)CCC(=O)N2 (stereo unspecified)
5.31
CC(C)c1noc(CCCC(=O)NC(C)c2nnc3n2CCC3)n1 (stereo unspecified)
9.96
c1csc(CN2C[C@@H]3COC[C@]3(COCc3ccncc3)C2)c1
18
Cn1cc(Br)c(=O)c(NS(=O)(=O)c2ccc(F)cc2)c1
-8.87

So what's the measured cytotoxicity at 10 µM for this one? CC(=O)N1CCN(C(=O)C(C)OCC(F)(F)F)CC1 (stereo unspecified)
-10.8

So what's the measured cytotoxicity at 10 µM for this one? COCc1nc(C(=O)N2CCCC2c2noc(C(C)C)n2)cs1 (stereo unspecified)
0.866

So what's the measured cytotoxicity at 10 µM for this one? CC(C)COc1ccccc1CN(C)C(=O)c1cc(=O)[nH]c(=O)[nH]1
2.05

----------
We begin with a simple list: items and their reported cytotoxicity at 10 µM.
TEST METHOD NOTES: Toxicity liver stage against HepG2, at 10uM
Type: cell-based
Design: test concentration 10 uM, cell line HepG2-A16-CD81EGFP
CONDITIONS: human, HepG2-A16-CD81EGFP cells; read-out: INHIBITION
Answer format reminder: number followed by unit.

Example entries and their recorded answers appear below.
CCC(=O)N1CCCCC1c1nc(O)c2c(n1)CN(C(=O)C1CC1)CC2 (centres undefined)
1.23%
Cc1oc(C(=O)O)cc1S(=O)(=O)Nc1cc(F)ccc1F
-7.66%
CC1CN(C)CCN1C(=O)c1ccn(-c2ccc(F)cc2)n1 (centres undefined)
-5.3%
O=C(O)[C@@H]1CN(CC2CCC2)C[C@H]1c1ccc(F)cc1
-3.62%

So what's the measured cytotoxicity at 10 µM for this one? CCOCCn1nc(C)cc1C(=O)N1CCC2(CC1)[C@H](O)C[C@@H]2OCC
4.35%

----------
TEST METHOD NOTES: Toxicity liver stage against HepG2, at 10uM
Type: cell-based
Design: test concentration 10 uM, cell line HepG2-A16-CD81EGFP
CONDITIONS: human, HepG2-A16-CD81EGFP cells; read-out: INHIBITION
PROPERTY LABEL: cytotoxicity at 10 µM (%)
Use % as the unit, but write only the number.

CC(=O)N1C[C@@H](F)[C@@H](OCc2nc3ccccc3o2)C1
-1.34
CC(C)(C)SCC(=O)NCCc1csc(N2CCCC2)n1
8.74
COc1cccc(-n2cc(CN(C)C(=O)c3cc[nH]n3)cn2)c1
16.3
Cc1c2ncn(CC(=O)N(C)C)c(=O)c2nn1C
-2.56
Cc1ccc(-c2nc(CN3CCOC(c4ccccc4)C3)cs2)o1 (centres undefined)
-8.11
CN1N=C(C(=O)N2CCCC(n3ccnc3)C2)CCC1=O (centres undefined)
-13.2
CSc1nccc(N2CCN(C)C3(CCC(=O)N(CC4CC4)CC3)C2)n1 (centres undefined)
5.6
COc1ccc(CN(C(=O)C(C)SC)c2cnn(C)c2)c(OC)c1 (centres undefined)
-3.88
Cc1ccc(CN(Cc2ccncc2)C2CCN(C)CC2)s1
7.39
COC(=O)c1ccc(Cn2nc(C)cc2C)c(OC)c1
10.7

So what's the measured cytotoxicity at 10 µM for this one? COCC(=O)N1CC[C@@H]2CN(Cc3ccccc3)S(=O)(=O)[C@@H]2CC1
-0.733

So what's the measured cytotoxicity at 10 µM for this one? CC(=O)N1CCN(c2cnccn2)CC(CO)C1 (centres undefined)
3.03

So what's the measured cytotoxicity at 10 µM for this one? CCOCCCn1c(NC(=O)c2cnc(C)s2)nc2ccccc21
-30

So what's the measured cytotoxicity at 10 µM for this one? O=C(COc1ccccc1O)N1CCOC(C(F)(F)F)C1 (centres undefined)
-2.3

So what's the measured cytotoxicity at 10 µM for this one? CN1CCN(c2cc(CNC(=O)c3cnccn3)ccn2)CC1
-8.92

So what's the measured cytotoxicity at 10 µM for this one? Cc1ccc(CN2CC[C@H]3OCC[C@@H](C(=O)NCC4CC4)[C@@H]3C2)s1
-0.53

So what's the measured cytotoxicity at 10 µM for this one? C[C@@H]1CN(C(=O)CCc2cnn(C)c2)CC[C@@]1(O)C1CCOCC1
-0.872

So what's the measured cytotoxicity at 10 µM for this one? CC(=O)c1cccc(NC(=O)NCCCc2nc(C(C)C)no2)c1
2.16

So what's the measured cytotoxicity at 10 µM for this one? CCc1cnccc1C(=O)Nc1ccc(C(N)=O)nc1
5.44

So what's the measured cytotoxicity at 10 µM for this one? CCCn1ccnc1CN1CC[C@@H](NC(=O)c2cccnc2)[C@H](O)C1
-7.31

So what's the measured cytotoxicity at 10 µM for this one? Cn1cc(CN2C[C@@H](F)[C@@H](OCc3nc4cnccc4[nH]3)C2)cn1
6.88

So what's the measured cytotoxicity at 10 µM for this one? Cc1cnc(CN(C)C(=O)C23CNCC2CNC3)[nH]1 (centres undefined)
-6.46

So what's the measured cytotoxicity at 10 µM for this one? COCCCNC(=O)Nc1cccc2c1CCN(S(C)(=O)=O)C2
2.87

So what's the measured cytotoxicity at 10 µM for this one? Cc1cc(CN2CCCC2c2noc(C(C)C)n2)on1 (centres undefined)
-0.713
